B1: CRYL1 (parent)
chain: RNALENIRKEMKLLEQAGSLKGSL

Variants of: B1
procedure-details: protein stability index of a GFP-peptide fusion (GPS, HEK-293T) (PSI 1-6); higher = more stable;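 further: lentivirally expressed fusions sorted by FACS into six bins by GFP to DsRed ratio, PSI derived from sequencing read proportions per bin multiplied by bin number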
experimental-context: c terminus: a fixed tail appended
Label N if protein stability index falls below 3; label Y in every other case.

State whether the measured protein stability index reaches 3, counting equality as reaching it, for R8Y
N

State whether the measured protein stability index reaches 3, counting equality as reaching it, for K12P
Y

State whether the measured protein stability index reaches 3, counting equality as reaching it, for A17C
N

State whether the measured protein stability index reaches 3, counting equality as reaching it, for E5F
N

State whether the measured protein stability index reaches 3, counting equality as reaching it, for L20E
Y

State whether the measured protein stability index reaches 3, counting equality as reaching it, for E5S
N

State whether the measured protein stability index reaches 3, counting equality as reaching it, for N6Y
N

State whether the measured protein stability index reaches 3, counting equality as reaching it, for L4M
Y

State whether the measured protein stability index reaches 3, counting equality as reaching it, for L20V
Y

State whether the measured protein stability index reaches 3, counting equality as reaching it, for R1H
Y

State whether the measured protein stability index reaches 3, counting equality as reaching it, for G18W
N

State whether the measured protein stability index reaches 3, counting equality as reaching it, for K12D
Y

State whether the measured protein stability index reaches 3, counting equality as reaching it, for M11T
Y

State whether the measured protein stability index reaches 3, counting equality as reaching it, for N6S
Y

State whether the measured protein stability index reaches 3, counting equality as reaching it, for E15A
N

State whether the measured protein stability index reaches 3, counting equality as reaching it, for S23M
N

State whether the measured protein stability index reaches 3, counting equality as reaching it, for R8W
N

State whether the measured protein stability index reaches 3, counting equality as reaching it, for E10C
N

State whether the measured protein stability index reaches 3, counting equality as reaching it, for L14W
Y

State whether the measured protein stability index reaches 3, counting equality as reaching it, for E15W
N

State whether the measured protein stability index reaches 3, counting equality as reaching it, for M11F
Y

State whether the measured protein stability index reaches 3, counting equality as reaching it, for K12I
Y

State whether the measured protein stability index reaches 3, counting equality as reaching it, for M11K
N

State whether the measured protein stability index reaches 3, counting equality as reaching it, for M11R
Y

State whether the measured protein stability index reaches 3, counting equality as reaching it, for A3I
N

State whether the measured protein stability index reaches 3, counting equality as reaching it, for I7L
N

State whether the measured protein stability index reaches 3, counting equality as reaching it, for K9D
Y

State whether the measured protein stability index reaches 3, counting equality as reaching it, for K9R
Y

State whether the measured protein stability index reaches 3, counting equality as reaching it, for A17Q
Y

State whether the measured protein stability index reaches 3, counting equality as reaching it, for K9E
Y

State whether the measured protein stability index reaches 3, counting equality as reaching it, for S19Q
N

State whether the measured protein stability index reaches 3, counting equality as reaching it, for L13S
Y

State whether the measured protein stability index reaches 3, counting equality as reaching it, for R8Q
Y

State whether the measured protein stability index reaches 3, counting equality as reaching it, for N6D
Y

State whether the measured protein stability index reaches 3, counting equality as reaching it, for Q16E
Y

State whether the measured protein stability index reaches 3, counting equality as reaching it, for E15S
N

State whether the measured protein stability index reaches 3, counting equality as reaching it, for G18T
Y

State whether the measured protein stability index reaches 3, counting equality as reaching it, for K9S
Y

State whether the measured protein stability index reaches 3, counting equality as reaching it, for G22E
Y

State whether the measured protein stability index reaches 3, counting equality as reaching it, for M11E
Y

State whether the measured protein stability index reaches 3, counting equality as reaching it, for R1W
Y

State whether the measured protein stability index reaches 3, counting equality as reaching it, for L14V
Y

State whether the measured protein stability index reaches 3, counting equality as reaching it, for G18S
Y

State whether the measured protein stability index reaches 3, counting equality as reaching it, for R1N
Y

State whether the measured protein stability index reaches 3, counting equality as reaching it, for A3G
Y

State whether the measured protein stability index reaches 3, counting equality as reaching it, for G22W
N

State whether the measured protein stability index reaches 3, counting equality as reaching it, for M11I
Y

State whether the measured protein stability index reaches 3, counting equality as reaching it, for E5N
N

State whether the measured protein stability index reaches 3, counting equality as reaching it, for N2C
N

State whether the measured protein stability index reaches 3, counting equality as reaching it, for K9Q
Y

State whether the measured protein stability index reaches 3, counting equality as reaching it, for M11H
Y

State whether the measured protein stability index reaches 3, counting equality as reaching it, for E15Q
Y

State whether the measured protein stability index reaches 3, counting equality as reaching it, for L20G
Y

State whether the measured protein stability index reaches 3, counting equality as reaching it, for R1M
Y

State whether the measured protein stability index reaches 3, counting equality as reaching it, for E5P
Y

State whether the measured protein stability index reaches 3, counting equality as reaching it, for R8I
N

State whether the measured protein stability index reaches 3, counting equality as reaching it, for A3V
N

State whether the measured protein stability index reaches 3, counting equality as reaching it, for S23E
Y

State whether the measured protein stability index reaches 3, counting equality as reaching it, for N2G
Y

State whether the measured protein stability index reaches 3, counting equality as reaching it, for E15R
Y

State whether the measured protein stability index reaches 3, counting equality as reaching it, for R1G
Y

State whether the measured protein stability index reaches 3, counting equality as reaching it, for N2A
Y

State whether the measured protein stability index reaches 3, counting equality as reaching it, for R8E
N

State whether the measured protein stability index reaches 3, counting equality as reaching it, for L24V
Y

State whether the measured protein stability index reaches 3, counting equality as reaching it, for S19L
N

State whether the measured protein stability index reaches 3, counting equality as reaching it, for L24I
Y

State whether the measured protein stability index reaches 3, counting equality as reaching it, for E10Y
N

State whether the measured protein stability index reaches 3, counting equality as reaching it, for S23V
N

State whether the measured protein stability index reaches 3, counting equality as reaching it, for L13D
Y

State whether the measured protein stability index reaches 3, counting equality as reaching it, for M11P
Y

State whether the measured protein stability index reaches 3, counting equality as reaching it, for S19E
Y

State whether the measured protein stability index reaches 3, counting equality as reaching it, for L20W
N

State whether the measured protein stability index reaches 3, counting equality as reaching it, for K21N
Y

State whether the measured protein stability index reaches 3, counting equality as reaching it, for M11Q
Y

State whether the measured protein stability index reaches 3, counting equality as reaching it, for S23F
N

State whether the measured protein stability index reaches 3, counting equality as reaching it, for S23N
Y

State whether the measured protein stability index reaches 3, counting equality as reaching it, for G18D
Y

State whether the measured protein stability index reaches 3, counting equality as reaching it, for R8N
Y

State whether the measured protein stability index reaches 3, counting equality as reaching it, for L13H
Y

State whether the measured protein stability index reaches 3, counting equality as reaching it, for L20S
Y

State whether the measured protein stability index reaches 3, counting equality as reaching it, for L24A
Y

State whether the measured protein stability index reaches 3, counting equality as reaching it, for S23I
N

State whether the measured protein stability index reaches 3, counting equality as reaching it, for L14P
Y

State whether the measured protein stability index reaches 3, counting equality as reaching it, for A3C
N

State whether the measured protein stability index reaches 3, counting equality as reaching it, for A3F
N

Values from the supplement of paper PMC10567573
